The reported measurements were obtained from patent US20250313553A1.

# Lookup of reported solubility at 24 h keyed by entry
experiment: Solubility measurement (DMSO solution precipitation method); assay type: physicochemical; settings: aqueous buffer, kinetic from dmso stock; McIlvaine buffer pH 4.5, 24 h; read-out: solubility pH 4.5

input: Which solubility at 24 h value is on record for C[C@H]1CNCCN1c1nccc(-c2noc([C@@]3(C)CCCc4sc(N)c(C#N)c43)n2)n1 [Example V-4] ?
output: > 97 µg/mL

input: Please answer likewise for C[C@H](Oc1nccc(-c2noc([C@@]3(C)CCCc4sc(N)c(C#N)c43)n2)n1)[C@@H]1CCCN1C [Example V-10]
output: > 110 µg/mL

input: Please answer likewise for C[C@H]1CN(C)CCN1c1nccc(-c2cc([C@@]3(C)CCCc4sc(N)c(C#N)c43)on2)n1 [Example V-27]
output: > 93 µg/mL

input: Please answer likewise for COCCCN1CCCN(c2nccc(-c3noc([C@@]4(C)CCCc5sc(N)c(C#N)c54)n3)n2)[C@@H](C)C1 [Example V-2]
output: > 130 µg/mL

input: Please answer likewise for C[C@H](Oc1ccnc(-c2cc([C@@]3(C)CCCc4sc(N)c(C#N)c43)no2)n1)[C@@H]1CCCN1C [Example V-25]
output: > 110 µg/mL

input: Please answer likewise for C[C@H]1CN(CC2CC2)CCCN1c1nccc(-c2noc([C@@]3(C)CCCc4sc(N)c(C#N)c43)n2)n1 [Example V-3]
output: > 100 µg/mL
